TGT: T1, human CD28, full-length, expressed on transfected Expi293 cells (human, UniProt P10747 19-220)
T1 construct: whole, on cells
TEST DETAILS: flow cytometry, 100 nM, Expi293 cells with human CD28
REPORTED PROPERTY: MFI ratio to WT (ΔWT) (fold)
Number in fold, nothing else.

BINDER | QUANTITY UNIT | MFI ratio to WT (ΔWT)
variant ICOSL IgV-Fc fusion N52R/N57W/Q100K (Fc fusion) DTQEKEVRAMVGSDVELSCACPEGSRFDLNDVYVYWQTSESKTVVTYHIPQRSSLEWVDSRYRNRALMSPAGMLRGDFSLRLFNVTPQDEQKFHCLVLSKSLGFQEVLSVEVTLHVAANFSVGSGGGGSEPKSSDKTHTCPPCPAPEAEGAPSVFLFPPKPKDTLMISRTPEVTCVVVDVSHEDPEVKFNWYVDGVEVHNAKTKPREEQYNSTYRVVSVLTVLHQDWLNGKEYKCKVSNKALPAPIEKTISKAKGQPREPQVYTLPPSREEMTKNQVSLTCLVKGFYPSDIAVEWESNGQPENNYKTTPPVLDSDGSFFLYSKLTVDKSRWQQGNVFSCSVMHEALHNHYTQKSLSLSPG | fold | 5.9

Query: MFI ratio to WT (ΔWT); subject: variant ICOSL IgV-Fc fusion N52R/N57L/Q100S (Fc fusion) DTQEKEVRAMVGSDVELSCACPEGSRFDLNDVYVYWQTSESKTVVTYHIPQRSSLELVDSRYRNRALMSPAGMLRGDFSLRLFNVTPQDEQKFHCLVLSSSLGFQEVLSVEVTLHVAANFSVGSGGGGSEPKSSDKTHTCPPCPAPEAEGAPSVFLFPPKPKDTLMISRTPEVTCVVVDVSHEDPEVKFNWYVDGVEVHNAKTKPREEQYNSTYRVVSVLTVLHQDWLNGKEYKCKVSNKALPAPIEKTISKAKGQPREPQVYTLPPSREEMTKNQVSLTCLVKGFYPSDIAVEWESNGQPENNYKTTPPVLDSDGSFFLYSKLTVDKSRWQQGNVFSCSVMHEALHNHYTQKSLSLSPG 5
